The measured values listed here are drawn from ChEMBL document CHEMBL3885881.

organism: Rattus norvegicus; assay: DrugMatrix - Regimen: Daily Repeat; assay type: toxicity, organism-based, Sprague-Dawley; design: regimen Daily Repeat, gender Male, age 6-8 weeks; details: in vivo, po, 0 mg/kg, 120 h, tissue Plasma, route oral GAVAGE, dose level Control, time 5 day, […]
reported endpoint: TOTAL BILIRUBIN (mg/dL)

[[record]]
molecule = "CC(C)(Oc1ccc(C2CCCc3ccccc32)cc1)C(=O)O (stereo not given) [NAFENOPIN]"
reported_endpoint = "TOTAL BILIRUBIN"
units_of_measure = "mg/dL"
quantitative_result = 0.17

[[record]]
molecule = "Cc1cccc(Nc2ccncc2S(=O)(=O)NC(=O)NC(C)C)c1 [TORSEMIDE]"
reported_endpoint = "TOTAL BILIRUBIN"
units_of_measure = "mg/dL"
quantitative_result = 0.2

[[record]]
molecule = "CCCCCCCCc1ccc(O)cc1 [4-OCTYLPHENOL]"
reported_endpoint = "TOTAL BILIRUBIN"
units_of_measure = "mg/dL"
quantitative_result = 0.12

[[record]]
molecule = "C[C@H]1O[C@@H](O[C@H]2[C@@H](O)C[C@H](O[C@H]3[C@@H](O)C[C@H](O[C@H]4CC[C@@]5(C)[C@H](CC[C@@H]6[C@@H]5CC[C@]5(C)[C@@H](C7=CC(=O)OC7)CC[C@]65O)C4)O[C@@H]3C)O[C@@H]2C)C[C@H](O)[C@@H]1O [DIGITOXIN]"
reported_endpoint = "TOTAL BILIRUBIN"
units_of_measure = "mg/dL"
quantitative_result = 0.17

[[record]]
molecule = "COc1ccc2[nH]c([S+]([O-])Cc3ncc(C)c(OC)c3C)nc2c1 (stereo not given) [OMEPRAZOLE]"
reported_endpoint = "TOTAL BILIRUBIN"
units_of_measure = "mg/dL"
quantitative_result = 0.37

[[record]]
molecule = "C[C@]12CC[C@@H]3c4ccc(O)cc4CC[C@H]3[C@@H]1CC[C@@H]2O [ESTRADIOL]"
reported_endpoint = "TOTAL BILIRUBIN"
units_of_measure = "mg/dL"
quantitative_result = 0.2

[[record]]
molecule = "Clc1ccc(Cl)cc1 [1,4-DICHLOROBENZENE]"
reported_endpoint = "TOTAL BILIRUBIN"
units_of_measure = "mg/dL"
quantitative_result = 0.37

[[record]]
molecule = "O=C(c1ccc(OCCN2CCCCC2)cc1)c1c(-c2ccc(O)cc2)sc2cc(O)ccc12 [RALOXIFENE]"
reported_endpoint = "TOTAL BILIRUBIN"
units_of_measure = "mg/dL"
quantitative_result = 0.1

[[record]]
molecule = "CC/C(=C(/CC)c1ccc(O)cc1)c1ccc(O)cc1 [DIETHYLSTILBESTROL]"
reported_endpoint = "TOTAL BILIRUBIN"
units_of_measure = "mg/dL"
quantitative_result = 0.1

[[record]]
molecule = "CC(C)Cc1ccc(C(C)C(=O)O)cc1 (stereo not given) [IBUPROFEN]"
reported_endpoint = "TOTAL BILIRUBIN"
units_of_measure = "mg/dL"
quantitative_result = 0.2


---

species on record: Rattus norvegicus; experiment: DrugMatrix - Regimen: Daily Repeat; assay type: toxicity, organism-based, Sprague-Dawley; set-up: regimen Daily Repeat, gender Male, age 6-8 weeks; conditions: in vivo, po, 0 mg/kg, 72 h, tissue Blood, route oral GAVAGE, dose level Control, time 3 day, […]
reported endpoint: EOSINOPHIL

[[record]]
compound = "CCOC(=O)C1=C(C)NC(C)=C(C(=O)OC)C1c1cccc([N+](=O)[O-])c1 (stereo not given) [NITRENDIPINE]"
result = "0%"

[[record]]
compound = "CCCCCCCCc1ccc(O)cc1 [4-OCTYLPHENOL]"
result = "0%"

[[record]]
compound = "O=C(O)Cc1ccccc1Nc1c(Cl)cccc1Cl [DICLOFENAC]"
result = "0%"

[[record]]
compound = "CCOC(=O)C(C)(C)Oc1ccc(Cl)cc1 [CLOFIBRATE]"
result = "0.5%"

[[record]]
compound = "Cc1cccc(Nc2ccncc2S(=O)(=O)NC(=O)NC(C)C)c1 [TORSEMIDE]"
result = "0.33%"


---

organism: Rattus norvegicus; assay: DrugMatrix - Regimen: Daily Repeat; assay type: toxicity, organism-based, Sprague-Dawley; parameters: regimen Daily Repeat, gender Male, age 6-8 weeks; details: in vivo, po, 0 mg/kg, 120 h, tissue Blood, route oral GAVAGE, dose level Control, time 5 day, […]
Consider the following compounds and their measured HEMATOCRIT readings.
reported endpoint: HEMATOCRIT (%)

[[record]]
compound = "Clc1ccc(Cl)cc1"
reported_endpoint = "HEMATOCRIT"
quantitative_result = 46.43

[[record]]
compound = "C[C@]12CC[C@@H]3c4ccc(O)cc4CC[C@H]3[C@@H]1CC[C@@H]2O"
reported_endpoint = "HEMATOCRIT"
quantitative_result = 34.08

[[record]]
compound = "CCOC(=O)C1=C(C)NC(C)=C(C(=O)OC)C1c1cccc([N+](=O)[O-])c1 (configuration not stated)"
reported_endpoint = "HEMATOCRIT"
quantitative_result = 36.22

[[record]]
compound = "C[C@H]1O[C@@H](O[C@H]2[C@@H](O)C[C@H](O[C@H]3[C@@H](O)C[C@H](O[C@H]4CC[C@@]5(C)[C@H](CC[C@@H]6[C@@H]5CC[C@]5(C)[C@@H](C7=CC(=O)OC7)CC[C@]65O)C4)O[C@@H]3C)O[C@@H]2C)C[C@H](O)[C@@H]1O"
reported_endpoint = "HEMATOCRIT"
quantitative_result = 34.25

[[record]]
compound = "Cc1cccc(Nc2ccncc2S(=O)(=O)NC(=O)NC(C)C)c1 [TORSEMIDE]"
reported_endpoint = "HEMATOCRIT"
quantitative_result = 34.08

[[record]]
compound = "CC/C(=C(/CC)c1ccc(O)cc1)c1ccc(O)cc1"
reported_endpoint = "HEMATOCRIT"
quantitative_result = 33.9

[[record]]
compound = "COc1ccc2[nH]c([S+]([O-])Cc3ncc(C)c(OC)c3C)nc2c1 (configuration not stated)"
reported_endpoint = "HEMATOCRIT"
quantitative_result = 34.78


---

species on record: Rattus norvegicus; assay: DrugMatrix - Regimen: Daily Repeat; type: toxicity, organism-based, Sprague-Dawley; design: regimen Daily Repeat, gender Male, age 6-8 weeks; conditions: in vivo, iv, 0 mg/kg, 72 h, tissue Plasma, dose level Control, time 3 day, vehicle 100 % SALINE
reported endpoint: CREATINE PHOSPHOKINASE (u/L)

[[record]]
compound_smiles = "CC(=O)N[C@@H]1[C@H](Oc2c3cc4cc2Oc2ccc(cc2Cl)[C@@H](O[C@@H]2O[C@@H](CO)[C@@H](O)[C@H](O)[C@@H]2NC(C)=O)[C@@H]2NC(=O)[C@H](NC(=O)[C@@H]4NC(=O)[C@H]4NC(=O)[C@@H](Cc5ccc(c(Cl)c5)O3)NC(=O)[C@H](N)c3ccc(O)c(c3)Oc3cc(O)cc4c3)c3ccc(O)c(c3)-c3c(O[C@H]4O[C@H](CO)[C@@H](O)[C@@H](O)[C@@H]4O)cc(O)cc3[C@@H](C(=O)O)NC2=O)O[C@@H](CO)[C@@H](O)[C@@H]1O"
units_of_measure = "u/L"
quantitative_result = 378.67


---

species: Rattus norvegicus; experiment: DrugMatrix - Regimen: Daily Repeat; assay type: toxicity, organism-based, Sprague-Dawley; parameters: regimen Daily Repeat, gender Male, age 6-8 weeks; settings: in vivo, ip, 2 mg/kg, […], tissue Blood, route intraperitoneal, dose level High, time 28 day, vehicle 100 % SALINE
reported endpoint: ABSOLUTE SEGMENTED NEUTROPHIL (cells/µL)

[[record]]
substance = "CADMIUM DICHLORIDE"
units_of_measure = "cells/µL"
quantitative_result = 4220


---

organism: Rattus norvegicus; assay: DrugMatrix - Regimen: Daily Repeat; assay type: toxicity, organism-based, Sprague-Dawley; design: regimen Daily Repeat, gender Male, age 6-8 weeks; settings: in vivo, po, 0 mg/kg, 72 h, tissue Plasma, route oral GAVAGE, dose level Control, time 3 day, […]
Consider the following compounds and their measured CHOLESTEROL readings.
reported endpoint: CHOLESTEROL (mg/dL)

[[record]]
compound = "CC(C)(Oc1ccc(C2CCCc3ccccc32)cc1)C(=O)O (centres undefined) [NAFENOPIN]"
quantitative_result = 76.5

[[record]]
compound = "Clc1ccc(Cl)cc1 [1,4-DICHLOROBENZENE]"
quantitative_result = 70.33

[[record]]
compound = "CC(=O)Nc1cccc(O)c1 [METACETAMOL]"
quantitative_result = 76.17

[[record]]
compound = "CC(=O)Nc1ccc(O)cc1 [ACETAMINOPHEN]"
quantitative_result = 70.5

[[record]]
compound = "CCCCCCCCc1ccc(O)cc1 [4-OCTYLPHENOL]"
quantitative_result = 69.17

[[record]]
compound = "O=C(O)Cc1ccccc1Nc1c(Cl)cccc1Cl [DICLOFENAC]"
quantitative_result = 76.33

[[record]]
compound = "Cc1cccc(Nc2ccncc2S(=O)(=O)NC(=O)NC(C)C)c1 [TORSEMIDE]"
quantitative_result = 82.5

[[record]]
compound = "C[C@H]1O[C@@H](O[C@H]2[C@@H](O)C[C@H](O[C@H]3[C@@H](O)C[C@H](O[C@H]4CC[C@@]5(C)[C@H](CC[C@@H]6[C@@H]5CC[C@]5(C)[C@@H](C7=CC(=O)OC7)CC[C@]65O)C4)O[C@@H]3C)O[C@@H]2C)C[C@H](O)[C@@H]1O [DIGITOXIN]"
quantitative_result = 68.5

[[record]]
compound = "CC/C(=C(/CC)c1ccc(O)cc1)c1ccc(O)cc1 [DIETHYLSTILBESTROL]"
quantitative_result = 71.33

